biological target: A-CAT WT (Dictyostelium discoideum, UniProt P42527); construct: gene mhkA; A-CAT: alpha-kinase domain and Thr825 autophosphorylation site of MHCK-A; expressed in E. coli; experiment: Nucleotide binding assay with fluorescent mant-ADP on purified A-CAT, carried out as previously described (ref 51); at least 3 separate experiments.; conditions: SD, n = 3
Sequence (P42527 552-841): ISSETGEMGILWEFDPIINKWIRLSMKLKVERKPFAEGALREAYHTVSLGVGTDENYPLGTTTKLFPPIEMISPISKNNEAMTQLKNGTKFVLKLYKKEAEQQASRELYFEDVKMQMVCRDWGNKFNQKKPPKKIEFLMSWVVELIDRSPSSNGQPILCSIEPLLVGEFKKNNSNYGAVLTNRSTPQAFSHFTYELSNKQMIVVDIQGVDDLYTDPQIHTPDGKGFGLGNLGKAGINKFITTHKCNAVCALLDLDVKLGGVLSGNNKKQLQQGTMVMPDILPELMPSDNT
Measured attribute: Kd (µM)
# unit: µM | format: bare number

Q: Name the reported Kd value associated with the compound CNc1ccccc1C(=O)O[C@H]1[C@@H](O)[C@H](n2cnc3c(N)ncnc32)O[C@@H]1COP(=O)(O)OP(=O)(O)O [mant-ADP]
A: 15

====

target: A-CAT D663S; experiment: mant-nucleotide binding to A-CAT D663S; design: species or system Dictyostelium; conditions: A-CAT D663S; 22 °C, 2 mM MgCl2, 1 mM dithiothreitol, 20 mM TES, pH 7.0; mean and standard deviation of at least 3 separate experiments
Measured attribute: pKd
Schema: pKd number; meaning minus log10 of the concentration expressed in molar units.

Q: Name the reported pKd value associated with the compound CNc1ccccc1C(=O)O[C@H]1[C@@H](O)[C@H](n2cnc3c(N)ncnc32)O[C@@H]1COP(=O)(O)OP(=O)(O)O
A: 4.92

Q: Name the reported pKd value associated with the compound CNc1ccccc1C(=O)O[C@H]1[C@@H](O)[C@H](n2cnc3c(N)ncnc32)O[C@@H]1CO[P@@](=O)(O)O[P@](=O)(O)OP(=O)(O)O
A: 5.68

Numbers sourced from paper PMC4876393.
